Please go through the items and note down their PBM binding z-score.
Tested on: LXRb homodimer (NR concentration 270 nM)
experimentalDetails: PBM binding z-score (relative to random genomic background probes); higher = stronger binding; sequences stand for … in GC…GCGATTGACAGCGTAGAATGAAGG
Answers are plain numbers.

Example entries and their recorded answers appear below.
GGAACGAGAGCAAAGTTGATAGCATCTGTCGACG    -1.1
CAAACTAGGTCAAAGGCCAAAGTCGAGCCAACCA    -0.153

Below is a list of sequences. For each, state its recorded PBM binding z-score.
1. TCTATTAGTTGAAGGGAAACCGACGAGTCCGTTT
2. CAAACTAGCTCACAGAGGTCAAAGTCCGTGCGTA
3. AGAAAGAGGTTATTAAGATCAGGGAATTGCGGTC

Output:
0.644
1.59
0.379

Below is a list of sequences. For each, state its recorded PBM binding z-score.
1. CGAACTAGGTTAGAACAGGACAGTGAAGGATGAT
2. AGTCAAAGTTCATCTAGGTAATGTAAGATATGCT
3. CCTAGCTGGCCAATCTGGGTCACTCAAGGCTTGA

Output:
1: 0.0334; 2: 1.98; 3: -1.32

Below is a list of sequences. For each, state its recorded PBM binding z-score.
1. CCCACTGGGGCATAAGGTTACCATAAGCCAGCCC
2. ATATGTAGGTTAAGGGTCATTCAAGTTGGTTCGC
3. CGAACTAGGTCATCCAGGACAGAGAATACATTGA
4. ACCGACAGGTGATGAAGGTAACTCAGGCTATCAT

Output:
-1.1
1.33
0.0984
-0.393

###

Test system: RARb homodimer (NR concentration 270 nM)
experimentalDetails: PBM binding z-score (relative to random genomic background probes); higher = stronger binding; sequences stand for … in GC…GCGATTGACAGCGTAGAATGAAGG
quantityKind: PBM binding z-score
Give bare numbers.

TCTAGTTGGGCAAAGGTCACACACTCGAAATGCG    5.01

Below is a list of sequences. For each, state its recorded PBM binding z-score.
1. TGTCAAAGTTCAGAGGTAACGTAAGTATCCACAC
2. AGAATGTGGTTATACGTAGATCAGGGAAGAAAGT
3. CCTGCTAGGTCAATCGTCAGCTAAAGCAGCTCGC
4. AGAACGAGGGCACGCTGAGTCGATAGCAGAGTAG
5. TTACCTAGGTGAAGGTCGTTGATCCCTCTGTAGA
6. TCATATAGGTAATACAGGTGAAAGCCGGCATCTA
7. ATATGTAGGTTAAGGGTTATTCAGGTTGGTTCGC

Output:
1: 3.02; 2: 0.494; 3: 2.83; 4: 1.02; 5: 1.21; 6: 0.482; 7: 1.91

###

Tested on: PPARg:RXRa DBDmut IVT, anti-RXR (DBD mutation: RXRa K156A/R161A, NR concentration 270 nM, RXRa partner concentration 90 nM)
experimentalDetails: PBM binding z-score (relative to random genomic background probes); higher = stronger binding; sequences stand for … in GC…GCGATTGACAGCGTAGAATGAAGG
Please go through the items and note down their PBM binding z-score.
Give bare numbers.

Example entries and their recorded answers appear below.
CTCGAAAGGTCGTGCTCAAGTGAGTATACCAAAC    0.992
TCATATAGGTATAGGTGAAAGTCGAACGATATGA    2.01
TCATATTGGTAAAGGTGAAAGTCGAACGATATGA    1.58

Below is a list of sequences. For each, state its recorded PBM binding z-score.
1. CCAGACAGGTGAGAAGGTAACACAGCCTCGATTA
2. GATACAGGGTCAAGGGCAGAGTACGCGTATTGAT
3. CCTCGGATGACAACAGGAGGTCAGAGCTGCCAGA

Output:
1
2.9
-0.191

###

Test system: PPARg:RXRa 270nM:90nM, anti-RXR (NR concentration 270 nM, RXRa partner concentration 90 nM)
experimentalDetails: PBM binding z-score (relative to random genomic background probes); higher = stronger binding; sequences stand for … in GC…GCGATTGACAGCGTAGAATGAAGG
Classes (PBM binding z-score): LOW = under -0.04, MID = from -0.04 up to 3, HIGH = 3 and over

Some entries whose results are on file:
TCTCGGAGGACATGAAGGTCAGAGCTTTCCAGAG    MID
TCGAGTAGGGTACCAATGGGGCATTCAGCTTTCT    MID
TCTTGTAAATCAGCAGGTTAAGAAAGCTGGCCAA    MID

Task: Bin? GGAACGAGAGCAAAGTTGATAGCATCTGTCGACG
Output: HIGH

Task: Bin? CCGACTGGGGCAGAATGGTTACCATACCATCCGG
Output: LOW

Task: Bin? CAAACTAGGTCACGGAAGGTCAAAGTCGAATGAC
Output: HIGH

###

Tested on: RARa homodimer (NR concentration 270 nM)
experimentalDetails: PBM binding z-score (relative to random genomic background probes); higher = stronger binding; sequences stand for … in GC…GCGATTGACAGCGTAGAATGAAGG
Where PBM binding z-score equals or exceeds 0.02, the correct label is met; where it does not, the label is not met.

AGAACGTGGGCAATGAGTTGATAGCACGGGTGGC    not met
CGTCCACGGTCAAGGTCAGTGAAAGAGACTCGAA    not met
AGTCAATGTTCAGGACGAGGTAACGTAAAGCACG    met
AGAACGAGGGCACGCTGAGATGATAGCAGAGTAG    not met
CCTACTGGGCCACCAAAGGTCATTGATTCAGTGA    met

Task: Does the sequence CCTAGCAGACCAGGGTCACTCAAGCATTTCGCTT have recorded PBM binding z-score that is 0.02 or more?
Output: not met

Task: Does the sequence CCTACTGGGCCACGCAAGGTCATTGATTCAGTGA have recorded PBM binding z-score that is 0.02 or more?
Output: met

Task: Does the sequence AGTCATAGTTCATCTAGGTAACGTAAGATATGCT have recorded PBM binding z-score that is 0.02 or more?
Output: met

Task: Does the sequence TCTTGTAGATGAACAGGAGGTTAAGAAAGATCGA have recorded PBM binding z-score that is 0.02 or more?
Output: met

Task: Does the sequence TCTAGCAGGCCAGAGGGTCACCCAAGAGGTACGG have recorded PBM binding z-score that is 0.02 or more?
Output: met

Task: Does the sequence ATACGTAGGTTAGCTGGGGTCATTCAGACTAGGC have recorded PBM binding z-score that is 0.02 or more?
Output: met

Task: Does the sequence CAAACTAGCTCAAGGTCAAAGTCGGTTTGTGCCA have recorded PBM binding z-score that is 0.02 or more?
Output: met

###

Test system: PPARg:RXRa (NR concentration 180 nM, RXRa partner concentration 90 nM)
experimentalDetails: PBM binding z-score (relative to random genomic background probes); higher = stronger binding; sequences stand for … in GC…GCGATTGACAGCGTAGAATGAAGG
quantityKind: PBM binding z-score
Answers are plain numbers.

Below is a list of sequences. For each, state its recorded PBM binding z-score.
1. CGAACTAGGTCAGAACAGGTCAGTGAAGGATGAT
2. CCAGACAGGTGAATGGTAACTCAGTCTGGTACGC
3. TAGCCTAGATCATGCGGGCCAGTATAGTGTCGGC
4. GCTTACGGGTCAAAGGTAATAGCATGAATAGAAT
5. GATACAGGGTCAGCTCGAGGCCAGAGTATGGAAA
6. TCTATTAGTTGATTACGGCAACCGAAACAGCGGA

Output:
5.27
0.419
0.0405
9.59
3.36
0.134

Below is a list of sequences. For each, state its recorded PBM binding z-score.
1. TCTTGTAGATCAACAGGAAGTTAAGAAAGATCGA
2. CCGATTGGGGCAGAAAGGTTACCATACCATCCGG

Output:
0.0673
2.06

###

System: RXRa homodimer (NR concentration 180 nM)
experimentalDetails: PBM binding z-score (relative to random genomic background probes); higher = stronger binding; sequences stand for … in GC…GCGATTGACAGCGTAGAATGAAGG
Where PBM binding z-score equals or exceeds 4, the correct label is 1.0; where it does not, the label is 0.0.

Some entries whose results are on file:
CGACCGAGGGCATGAGTTGATAGCAAATGCCGAT    0.0
AGAATGAGGTTACCAAAGCTCAGGGAAACGCTTG    0.0
GCGGCTGGGGCATCAGCAGGTTACCATAACTTAA    0.0
CCTACTGGGCCACGAAAGGTCATAGATTCAGTGA    1.0
TCATATAGGTAAACAGTTGAAAGTCCGTAAGTTA    0.0

Could you now consider this next sequence?
Task: Does the sequence ACTATTTGGTCAGCTGAGGTCACACACAATTCGG have recorded PBM binding z-score that is 4 or more?
Output: 1.0
